method_summary: Ex vivo biodistribution in normal mice
Set-up: species or system ddY mice
condition_parameters: i.v., 60 min after injection, mean (SD), 5 animals
reported_endpoint: Biodistribution of radioactivity, Lung

// query Supply reported Biodistribution of radioactivity, Lung belonging to this molecule: CN(C)c1ccc(C2=N[O][99Tc-]3(=[O])([NH]2)[NH2+]C(c2ccc4nc(-c5ccc(N(C)C)cc5)sc4c2)=N[O]3)cc1 [[^99mTc]BT1B]
// result 2.78 (0.54) % injected dose per gram

// query Supply reported Biodistribution of radioactivity, Lung belonging to this molecule: CN(C)c1ccc(-c2nc3ccc(C4=N[O][99Tc-]5(=[O])([NH]4)[NH2+]C(c4ccc6nc(-c7ccc(N(C)C)cc7)sc6c4)=N[O]5)cc3s2)cc1 [[^99mTc]BT2B]
// result 4.50 (0.60) % injected dose per gram

// query Supply reported Biodistribution of radioactivity, Lung belonging to this molecule: CN(C)c1ccc(/C=C/c2ccc(C3=N[O][99Tc-]4(=[O])([NH]C(c5ccc(N(C)C)cc5)=N[O]4)[NH2+]3)cc2)cc1 (single isomer, unassigned) [[^99mTc]SB1A]
// result 5.14 (0.29) % injected dose per gram

// query Supply reported Biodistribution of radioactivity, Lung belonging to this molecule: CN(C)c1ccc(/C=C/c2ccc(C3=N[O][99Tc-]4(=[O])([NH]3)[NH2+]C(c3ccc(/C=C/c5ccc(N(C)C)cc5)cc3)=N[O]4)cc2)cc1 (single isomer, unassigned) [[^99mTc]SB2A]
// result 6.48 (0.49) % injected dose per gram
